# Tested on: CCRF-CEM
# ASSAY_PROTOCOL: NCI tumour cell line growth inhibition, 48 h
Active and inactive are the calls of the source. No stated cut-off is given here; in the data, active = GI50 up to about 1.1 µM and inactive = higher.
RECORDED_ENDPOINT: GI50

Below, 3 compounds whose answers are already recorded.
COMPOUND	TESTED_TARGET	GI50
COc1ccc(C2=C(Cl)c3cc(OC)c(OC)cc3C2Cl)cc1OC (centres undefined)	CCRF-CEM	4.32 µM (inactive)
C=C(C)[C@H]1C2=CC(C)=C(O2)[C@@H](O[C@@H]2c3oc(cc3C)[C@H](C(=C)C)[C@H]3C=C(CC[C@H]2C(=C)C)C(=O)O3)[C@H](C(=C)C)CCC2=C[C@H]1OC2=O	CCRF-CEM	> 100 µM (inactive)
C#CCCCOc1ncccn1	CCRF-CEM	> 10 µM (inactive)

Asked: Which GI50 reading was recorded for the compound Cc1ccc2c(c1)C(=O)C(Cc1ccccc1C(=O)O)C2 (centres undefined) ?
Given back: > 100 µM (inactive)

Asked: Further, for "CCOC(=O)CC(=O)C(=O)NN=C1NCCCN1" ?
Given back: > 100 µM (inactive)

Asked: Further, for "CC(=O)Nc1cc(CN2CCCCC2)c(O)c2ncccc12" ?
Given back: 41.5 µM (inactive)

Asked: Further, for CNC(=O)OCC1=C(COC(=O)NC)C(C)N(c2ccc(OC)cc2)C1 (centres undefined) ?
Given back: 47.2 µM (inactive)

Asked: Further, for CC(C)[C@@H]1CC[C@@H](C)C[C@H]1OC(=O)/C=C1\C(C(=O)O[C@@H]2C[C@H](C)CC[C@H]2C(C)C)[C@H]2C=C[C@@H]1O2 (some centres undefined) ?
Given back: 23.4 µM (inactive)

Asked: Further, for CCOC(=O)CC1C(O)C(=O)N(C)C1c1ccccc1 (centres undefined) ?
Given back: > 100 µM (inactive)

* * *

GI50 values for the compounds below.
# Test system: SK-MEL-5
# ASSAY_PROTOCOL: NCI tumour cell line growth inhibition, 48 h
Active and inactive are the calls of the source. No stated cut-off is given here; in the data, active = GI50 up to about 1.1 µM and inactive = higher.

Below, 3 compounds whose answers are already recorded.
COMPOUND	GI50
CC(=O)NNc1nc(C)c(C(=O)/C=C/c2ccc(N(C)C)cc2)s1	> 100 µM (inactive)
C[C@@H]1C(=O)O[C@@H]2C[C@@]1(C)[C@@H]1C(=O)C3(O)OC14C2(C)OC(=O)[C@@]4(O)CCC1C3C(O)C=C2CC=CC(=O)[C@@]21C (stereo partly specified)	33 µM (inactive)
COCCCN1C(=O)C2c3[nH]c4ccccc4c3C3CCC(C(C)(C)C)CC3C2C1=O (stereo unspecified)	27.4 µM (inactive)

Asked: Notebook: pull reported GI50 for SK-MEL-5, entry CC(C)[C@@H]1CC[C@@H](C)C[C@H]1OC(=O)/C=C1\C(C(=O)O[C@@H]2C[C@H](C)CC[C@H]2C(C)C)[C@H]2C=C[C@@H]1O2 (stereo partly specified)
Given back: 40.4 µM (inactive)

Asked: Further, for "COc1cc2cc3c4c(cc(OC)c(OC)c4c2cc1OC)CCN3C(=O)OCCN1CCNCC1" ?
Given back: 14.3 µM (inactive)

Asked: Further, for "O=C(Cc1ccc(Cl)c(Cl)c1)NCCCN1CCN(CCCN2CCCCC2)CC1" ?
Given back: 10.4 µM (inactive)

* * *

# System: EKVX
# ASSAY_PROTOCOL: NCI tumour cell line growth inhibition, 48 h
Activity calls are given as the source filed them. No stated cut-off is given here; in the data, active = GI50 up to about 1.1 µM and inactive = higher.
GI50 values for the compounds below.

Below, 3 compounds whose answers are already recorded.
COMPOUND	RESULT
CSC(SC)=C1C(=O)N(c2ccccc2)N=C1C	24 µM (inactive)
CCOC(=O)[C@H]1CSC[C@@H](C(=O)OC)N1	> 100 µM (inactive)
O=c1oc2c(O)c(O)c(O)c3c(=O)oc4c(O)c(O)cc1c4c23	> 100 µM (inactive)

Asked: Which GI50 reading was recorded for the compound "COc1ccc(C2=NOP(c3ccccc3)(c3ccccc3)(c3ccccc3)C2)cc1" ?
Given back: 63.1 µM (inactive)

Asked: Further, for "Cn1c(=O)nc2n(-c3cccc(Cl)c3)c3ccccc3nc-2c1=O" ?
Given back: 12 µM (inactive)

Asked: Further, for CCCCCCCCCCCCCCCCCCOCC(C[N+]1(C)CCC(O)CC1)OCC (stereo unspecified) ?
Given back: 13.8 µM (inactive)

* * *

GI50 values for the compounds below.
# Tested on: MDA-N
# ASSAY_PROTOCOL: NCI tumour cell line growth inhibition, 48 h
Calls of active or inactive are those of the source. No stated cut-off is given here; in the data, active = GI50 up to about 1.1 µM and inactive = higher.

Below, 4 compounds whose answers are already recorded.
COMPOUND	TESTED_TARGET	GI50
N/C(=N\c1ccc(Cl)cc1)NS(=O)(=O)c1cccc2nsnc12	MDA-N	23.7 µM (inactive)
O=C(Nc1ccc(Cl)cc1C(F)(F)F)C(=O)Nn1c(S)nc2ccccc2c1=O	MDA-N	> 100 µM (inactive)
CC1CCC2C(C)(C)CC3(C)CCC1C23O (configuration not stated)	MDA-N	12.7 µM (inactive)
Oc1c(Cl)cc(CN(Cc2cc(Cl)c(O)c(Cl)c2)C2CCCCC2)cc1Cl	MDA-N	> 100 µM (inactive)

Asked: Which GI50 reading was recorded for the compound "C/C(C[n+]1ccccc1)=N\N=C(N)N" ?
Given back: > 100 µM (inactive)

Asked: Further, for CC1CSC(=S)N1C(=O)N1C(=S)SCC1C (configuration not stated) ?
Given back: 19.6 µM (inactive)

Asked: Further, for "CN(C)CCn1nc(N)c2nc3cc(C(F)(F)F)ccc3nc21" ?
Given back: > 100 µM (inactive)

* * *

# Tested on: HOP-62
# ASSAY_PROTOCOL: NCI tumour cell line growth inhibition, 48 h
The source made the active and inactive calls. Rule as the data show it: active = GI50 up to about 1.1 µM and inactive = higher.
Outcome (select one): active, inactive

For orientation, consider the following solved cases.
COMPOUND	TESTED_TARGET	ASSIGNED_CLASS
COc1c(NC(C)=O)c2ccccc2c2ccccc12	HOP-62	inactive
O=C(Cc1ccccc1)NNc1nc(NNC(=O)c2ccncc2)nc(Nc2ccc(Cl)cc2)n1	HOP-62	inactive
COc1cccc(C=O)c1[O-].COc1cccc(C=O)c1[O-].[Zn+2]	HOP-62	inactive
CC[C@@H](CCCC[C@@H]1CC[C@H]2CC(=O)C[C@@H]12)OC	HOP-62	inactive
CCOC(=O)c1c(Cl)nc2ccccc2c1N=[N+]=[N-]	HOP-62	inactive
CC(C)(C)C(=O)N1C(C(=O)O)Cc2ccccc2[C@@H]1Cc1ccccc1 (stereo not given in full)	HOP-62	inactive

Asked: Give the logged outcome of this assay for the following compound: CC(C)(C)OC(=O)N1CCC2(C)CC(=O)CC=C12 (stereo not given)
Given back: inactive

Asked: Further, for "O=C(O)c1cccc2cccc(-c3cccc4cccc(C(=O)O)c34)c12" ?
Given back: inactive

Asked: Further, for CC1CCN(C(C)C)P(=S)(Cc2ccccc2)O1 (stereo not given) ?
Given back: inactive

Asked: Further, for "COC(=O)[C@H](C)N1C(=O)N[C@@H](C(C)C)C1=O" ?
Given back: inactive

Asked: Further, for "CC(=O)CCNc1ccc(-c2cc(-c3ccc(N(C)C)cc3)nc3ccc4ccccc4c23)cc1" ?
Given back: inactive

Asked: Further, for "Clc1ccccc1CN1COc2c(cc(Cl)c3cccnc23)C1" ?
Given back: inactive

Asked: Further, for CC1(C)C2CC1C(/C=N\OCC(=O)O)=CC2=O (stereo not given) ?
Given back: inactive

Asked: Further, for "O=C1/C(=N\n2c(S)nnc2-c2ccncc2)c2cc(Cl)ccc2N1CN1CCCCC1" ?
Given back: inactive

Asked: Further, for CC1CCC2C(C)(C)CC3(C)CCC1C23O (stereo not given) ?
Given back: inactive

Asked: Further, for C#CCNC(=O)NC(CCCNC(=O)OCc1ccccc1)C(=O)OCc1ccccc1 (stereo not given) ?
Given back: inactive

Asked: Further, for "CN(Cc1ccccc1)c1nc(=[N+](C)C)ss1" ?
Given back: inactive

Asked: Further, for "CCOC(=S)SC/C(=N\OC(C)(C)OC)c1ccccc1" ?
Given back: inactive

* * *

GI50 values for the molecules below.
# Tested on: 786-0
# ASSAY_PROTOCOL: NCI tumour cell line growth inhibition, 48 h
Calls of active or inactive are those of the source. Rule as the data show it: active = GI50 up to about 1.1 µM and inactive = higher.

MOLECULE	GI50
O=C1CCCC/C1=C/C=C/c1ccccc1	> 100 µM (inactive)
CCn1c2ccc(O)c(C(=O)OC)c2c2cc3ccccc3c(O)c21	12.3 µM (inactive)
c1ccc(CN2CCC(=NN3CCCCC3)CC2)cc1	> 100 µM (inactive)
Clc1ccc(/C=C/c2nc(-c3ccccc3)cn3c2nc2ccccc23)cc1Cl	37.5 µM (inactive)

Asked: Notebook: pull reported GI50 for 786-0, entry "CN(N=O)c1nc2c(C(N)=O)ncn2s1"
Given back: 85.1 µM (inactive)

Asked: Further, for "CC1(C)CC23CC(C)(C)c4cccc(c42)OCc2ccc4ccc5ccc(nc5c4n2)COc2cccc1c23" ?
Given back: > 50 µM (inactive)

Asked: Further, for "O=C(O)c1cc(-c2ccncc2)nc2ccccc12" ?
Given back: > 100 µM (inactive)

Asked: Further, for "N#Cc1[nH]c(=O)n(-c2cccc3ccccc23)c1N" ?
Given back: > 10 µM (inactive)

Asked: Further, for "COc1ccc([C@]23CCN4COC[C@@H]([C@H]42)C2(CC3)OCC(C)(C)CO2)cc1OC" ?
Given back: > 100 µM (inactive)

Asked: Further, for Cc1cccc(C)c1NC(=O)CCCC(=O)C1CCC/C1=N\NC(=O)C(=O)NN (configuration not stated) ?
Given back: > 100 µM (inactive)

Asked: Further, for CCOC(=O)CC1C(O)C(=O)N(C)C1c1ccccc1 (configuration not stated) ?
Given back: > 100 µM (inactive)

Asked: Further, for "O=C1NC(=O)C(c2c[nH]c3cc(Br)ccc23)=C1c1cnc[nH]1" ?
Given back: 50 µM (inactive)

Asked: Further, for COC1=CC(=O)OC(/C=C(C)/C=C/C2=C(C)CCCC2(C)C)C1 (configuration not stated) ?
Given back: > 100 µM (inactive)

Asked: Further, for "COc1ccc2cc(C(=O)NCCCNC(=O)c3ccc4cc(OC)ccc4c3)ccc2c1" ?
Given back: 19.6 µM (inactive)

Asked: Further, for "CN(CCc1ccc(Cl)c(Cl)c1)CCN(C)CCN1CCCC1" ?
Given back: 8.99 µM (inactive)

Asked: Further, for CNC(=O)N(CCCCC(NC(C)=O)C(=O)NCc1ccccc1)Cc1ccccc1 (configuration not stated) ?
Given back: > 100 µM (inactive)

Asked: Further, for "Clc1ccccc1C(Nc1cnccn1)Nc1cnccn1" ?
Given back: > 100 µM (inactive)
